Values compiled from PubChem BioAssay AID1626.

For each of the molecules below, state its IC90.
System: M. tuberculosis H37Rv growth inhibition
Assay: M. tuberculosis H37Rv growth inhibitors, H37Rv strain (AID 1626)
Details: measured here: IC90 against H37Rv
Express the result in µM but write the number alone.

Could you tell me which IC90 is on file for Cc1ccc(-c2c[n+](CC(=O)N3c4ccccc4Sc4ccccc43)c3n2CCC3)cc1 ?
20.6

I would be grateful if you could share the reported IC90 for O=C(C[n+]1cc(-c2ccc(Cl)c(Cl)c2)n2c1CCC2)N1c2ccccc2Sc2ccccc21 .
13.9

// lookup IC90 for O=C(c1cc2cc3ccc(Cl)cc3nc2o1)N1CCC2(CC1)OCCO2
7.22

Please report the recorded IC90 for CCn1cc(CNC(=O)c2cc([N+](=O)[O-])c(C)c([N+](=O)[O-])c2)cn1 .
0.874

Which IC90 is reported for this molecule? Cc1ccc2nc(Cl)c(/C=C/C(=O)c3ccco3)cc2c1
4.01

I have this molecule here, CCOC(=O)CNC(=O)CSc1nc(-c2ccccc2)ns1 , and I need its recorded IC90.
3.2

Record request: IC90 value, item O=C1c2cc([N+](=O)[O-])cc3cc([N+](=O)[O-])cc(c23)C(=O)N1c1ccccn1
3.34

###

Kindly state IC90 for each of the entries shown.
Test system: M. tuberculosis H37Rv growth inhibition
Assay: M. tuberculosis H37Rv growth inhibitors, H37Rv strain (AID 1626)
Conditions: measured here: IC90 against H37Rv
Respond with the bare value in µM.

Request the reported IC90 associated with CCN(CC)CCOC(=O)c1ccc(N/C=C(/C#N)c2nc(-c3cccc(OC)c3)cs2)cc1
20.2

Query: IC90; subject: Cc1ccc(Oc2nc(-c3ccccn3)nc3ccccc23)cc1
10.5

Entry under review: Cc1ccc(NC(=O)c2nc[nH]c2C(=O)N[C@@H](C)c2ccccc2)cc1 . Reported IC90?
6.42

###

System: M. tuberculosis H37Rv growth inhibition
Experiment: M. tuberculosis H37Rv growth inhibitors, H37Rv strain (AID 1626)
METRIC_NAME: IC50

Could you tell me which IC50 is on file for COC(=O)c1ccnc(SCC(=O)c2ccccc2)c1 ?
15.8 µM

Name the reported IC50 value associated with the compound O=C1c2ccc3c4c(ccc(c24)C(=O)N1CCCCO)C(=O)N(CCCCO)C3=O
7.04 µM

Could you share which IC50 value was measured for CCOc1ccc(N2CCc3c(C)nc(SC)nc32)cc1 ?
< 0.195 µM

Please report the recorded IC50 for O=c1oc2ccc(Br)cc2cc1-c1nc2ccccc2o1 .
2 µM

May I ask what IC50 has been recorded for CCOC(=O)c1sc(NC(=O)CNCc2ccccn2)c(C(=O)OCC)c1C ?
2.77 µM

What IC50 value was documented for this compound, COC(=O)C1C(O)C(C)C(O)C(C)(O)/C=C\C=C(/C)C(=O)Nc2c(C)c(OC(C)=O)c3c(c2O)C(=O)C(C)=C2OCOC(=C23)/C(C)=C/C(C)(O)C(O)C(C)C1O (centres undefined) ?
0.32 µM

Data request, read-out IC50, for COc1ccc(OC(=O)CCc2c[nH]c3ccccc23)cc1
18.2 µM

What value of IC50 has been reported for the following compound? Nc1ccccc1Nc1ccccc1
< 0.195 µM

Would you mind telling me what IC50 value was observed for O=c1c([N+](=O)[O-])cc(C(F)(F)F)cn1Cc1cccc(Cl)c1 ?
8.56 µM

Can you share its IC50? I mean this compound: O=[N+]([O-])c1ccc(COc2ccc(-c3[nH]ncc3-c3ccc(Cl)cc3)c(O)c2)cc1
23 µM

Dear colleague, I am looking for the recorded IC50 of the following compound: Cc1cc(Nc2ccccc2)nc(NCc2ccccc2)n1
10.9 µM

Data request, read-out IC50, for O=c1c2ccccc2c(C=NC2CCN(Cc3ccccc3)CC2)c(O)n1Cc1ccc2c(c1)OCO2
6.36 µM

I am curious: what IC50 value has been reported for CC(=O)NC(=O)c1ccc(-c2ccc(Cl)cc2)o1 ?
11.3 µM

Entry under review: Cc1ccc(Nc2c(-c3ccccn3)nc3ccc(C)cn23)cc1 . Reported IC50?
1.43 µM

Which IC50 is reported for this compound? O=C(Nc1nnc(SCc2ccc(F)cc2)s1)c1cnccn1
15.6 µM

What value of IC50 has been recorded for this entry: CCOc1cc(CNC(C)(C)CO)cc(Br)c1OCc1ccc(Cl)cc1Cl
11.4 µM

Fill blank: measured IC50 of the compound CCOC(=O)c1cnc(-n2nc(C)cc2C)nc1NC(C)c1ccccc1 (centres undefined) is ____.
1.06 µM

Data request, read-out IC50, for CCC(=C(c1ccc(OC)cc1)c1ccc(OC)cc1)c1cn(CC(O)CN(CCO)CCO)c2ccccc12 (centres undefined)
12.5 µM

I am curious: what IC50 value has been reported for CCS(=O)(=O)Nc1ccc(-c2cc(-c3ccccc3)c3cc(C)ccc3n2)cc1 ?
9.19 µM

I'd like to know its IC50. The compound in question is NS(=O)(=O)c1ccc(CCNc2ncnc3c2c(-c2ccccc2)cn3-c2ccc(F)cc2)cc1
5.77 µM

Which IC50 is listed for O=C(Nc1ccn(Cc2ccccc2F)n1)c1ccc(COc2ccc(Cl)cc2Cl)o1 ?
33.9 µM

Please report the recorded IC50 for COc1ccc(-c2nn(-c3ccccc3)cc2/C=N/N=C(N)N)cc1OC .
13.3 µM

Could you share which IC50 value was measured for Cc1ccc(OCc2nnc(SCc3cc(=O)[nH]c4ccccc34)n2-c2ccccc2)cc1 ?
27.8 µM

Which IC50 value belongs to c1nc2n(n1)C1=C(CCCC1)C1(CCCCC1)N2 ?
18.2 µM

Need IC50, item Cc1ccc(-c2[nH]nc(N)c2N=Nc2ccccc2C)cc1
5.45 µM

What value of IC50 has been recorded for this entry: COc1cnc(-c2ccccn2)nc1Sc1ccccc1
2.66 µM

Requested read-out: IC50. Entry: COc1ccc(-c2c(C#N)c(SCC(=O)c3cc4ccccc4oc3=O)nc(C)c2C(=O)Nc2ccccc2)cc1
12.2 µM

Which IC50 reading was recorded for the compound COc1ccc2cc(-c3[nH]ncc3CN3CCCN(c4ccccc4)CC3)ccc2c1 ?
9.35 µM

Requested read-out: IC50. Entry: COc1ccc(CNc2nc3nc4c(c(=O)n3[nH]2)CCC4)cc1
1.09 µM

I would be grateful if you could share the reported IC50 for CCOc1ccc(-c2csc(/C(C#N)=C\c3ccc(O)c([N+](=O)[O-])c3)n2)cc1 .
8.54 µM

Which IC50 value is on record for O=C(CCl)Nc1cn(-c2ccccc2)nc1-c1ccccc1 ?
9.87 µM

I have this compound here, CCOC(=O)COc1ccc(-c2nnc(-c3ccccc3)o2)cc1 , and I need its recorded IC50.
0.409 µM

Param item = Cc1cc2ncn(/N=C/c3ccc([N+](=O)[O-])s3)c2cc1C ; retrieve measured IC50.
< 0.195 µM

Look at this compound and give its reported IC50. CCOC(=O)c1cc(-c2csc(COc3ccc(Cl)cc3)n2)on1
< 0.195 µM

Quick check: IC50 of COc1cc(NC(=O)c2ccc(Cl)cc2)c(OC)cc1NC(=O)CN1CCCCC1 ?
8.74 µM

Given the entry CC(=O)C1=C(C)NC(SCC(=O)c2ccc(F)cc2)=C(C#N)C1c1ccco1 (centres undefined) , report its measured IC50.
11.7 µM

What value of IC50 has been reported for the following compound? CCCOC(=O)c1ccc(NC(=O)CCC(=O)OCC)cc1
< 0.195 µM

IC50 for Cc1cc(=O)oc2cc(Oc3ccc([N+](=O)[O-])cc3C(F)(F)F)ccc12 ?
12.2 µM

Reported IC50 for COC(=O)CSc1ccnc2cc(Cl)ccc12 : what is it?
4.25 µM

Which IC50 is reported for this compound? COc1ccc2c(c1)CCc1c-2nc2ccccc2c1N1CCOCC1
11.5 µM

Data request, read-out IC50, for COc1ccc(C(C(=O)NC2CCCCC2)N(C(=O)c2sc(C)nc2C)c2ccccc2C)cc1 (centres undefined)
6.96 µM

Dear colleague, I am looking for the recorded IC50 of the following compound: CCCCCCCn1c(NC(=O)CC)nc2ccccc21
< 0.195 µM

Any idea what IC50 was measured for O=C(Nc1nc2ccccc2[nH]1)C12CC3CC(CC(C3)C1)C2 ?
2.25 µM

Fill in the blank: the reported IC50 of CC(=O)Nc1nc2ccccc2n1Cc1ccccc1Cl is ____.
< 0.195 µM
